target_or_test_system: human serum albumin (HSA) (Homo sapiens)
Sequence (P02768 25-609): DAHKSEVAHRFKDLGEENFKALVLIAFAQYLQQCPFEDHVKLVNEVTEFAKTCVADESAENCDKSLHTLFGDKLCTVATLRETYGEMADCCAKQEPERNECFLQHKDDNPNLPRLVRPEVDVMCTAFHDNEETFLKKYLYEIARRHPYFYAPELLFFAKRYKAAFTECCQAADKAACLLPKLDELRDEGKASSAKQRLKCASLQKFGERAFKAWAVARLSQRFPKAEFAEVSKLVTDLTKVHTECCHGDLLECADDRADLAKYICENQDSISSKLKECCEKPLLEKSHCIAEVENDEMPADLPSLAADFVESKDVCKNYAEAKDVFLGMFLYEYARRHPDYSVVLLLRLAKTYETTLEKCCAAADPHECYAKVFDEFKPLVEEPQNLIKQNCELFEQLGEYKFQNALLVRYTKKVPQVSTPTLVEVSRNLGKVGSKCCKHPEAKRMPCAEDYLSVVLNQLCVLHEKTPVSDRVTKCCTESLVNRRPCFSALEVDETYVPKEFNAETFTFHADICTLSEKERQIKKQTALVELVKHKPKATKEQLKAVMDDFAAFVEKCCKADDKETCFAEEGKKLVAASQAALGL
experiment_summary: Albumin binding fluorimetric assay, HSA
conditions_used: fluorescence quenching, 10 μM HSA
# pKd per entry
Scale note: pKd = -log10(concentration in M).

Below: 3 compounds and their reported pKd.
[
  {
    "smi": "O=C(O)c1ccc(-c2ccc(/C=C3\\SC(=S)N(Cc4ccc(Cl)c(F)c4)C3=O)o2)cc1O",
    "target_or_test_system": "human serum albumin (HSA) (Homo sapiens)",
    "assay_readout": "pKd",
    "numeric_result": 5.65
  },
  {
    "smi": "O=C(O)c1ccc(-c2ccc(/C=C3\\SC(=S)N(Cc4ccc(Cl)cc4)C3=O)o2)cc1O",
    "target_or_test_system": "human serum albumin (HSA) (Homo sapiens)",
    "assay_readout": "pKd",
    "numeric_result": 6.02
  },
  {
    "smi": "O=C(O)c1ccc(-c2ccc(/C=C3\\SC(=S)N(c4ccc(F)c(Cl)c4)C3=O)o2)cc1O",
    "target_or_test_system": "human serum albumin (HSA) (Homo sapiens)",
    "assay_readout": "pKd",
    "numeric_result": 5.66
  }
]

Lab note: next compound to report on.
Recorded pKd for `Cc1ccc(CCN2C(=O)/C(=C/c3ccc(-c4ccc(C(=O)O)c(O)c4)o3)SC2=S)cc1` , please?
5.80

###

target_or_test_system: bovine serum albumin (BSA) (Bos taurus, UniProt P02769)
Sequence (P02769 25-607): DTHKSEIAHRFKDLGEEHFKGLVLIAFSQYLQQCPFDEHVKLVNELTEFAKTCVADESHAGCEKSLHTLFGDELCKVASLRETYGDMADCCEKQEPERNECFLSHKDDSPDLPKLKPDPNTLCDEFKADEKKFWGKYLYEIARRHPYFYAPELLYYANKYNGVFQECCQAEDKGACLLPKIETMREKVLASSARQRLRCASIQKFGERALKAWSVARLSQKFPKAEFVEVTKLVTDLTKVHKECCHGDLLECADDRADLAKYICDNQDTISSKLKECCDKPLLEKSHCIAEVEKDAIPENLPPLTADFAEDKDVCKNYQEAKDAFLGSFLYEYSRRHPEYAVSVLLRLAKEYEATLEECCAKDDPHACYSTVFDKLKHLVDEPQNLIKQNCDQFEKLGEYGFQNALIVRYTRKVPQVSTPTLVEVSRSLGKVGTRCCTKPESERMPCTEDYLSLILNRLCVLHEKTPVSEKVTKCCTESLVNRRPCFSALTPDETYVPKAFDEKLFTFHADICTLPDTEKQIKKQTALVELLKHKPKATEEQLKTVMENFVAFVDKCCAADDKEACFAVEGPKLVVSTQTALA
experiment_summary: Albumin binding fluorimetric assay, BSA
conditions_used: fluorescence quenching, 10 μM BSA
Description: The binding of each compounds to HSA (human serum albumin) and BSA (bovine serum albumin) were monitored by fluorescence spectroscopy in order to determine the dissociation constant (Kd). A quantitative analysis of the potential interaction was performed by fluorimetric analysis using 96 multiwell plates: in each well a fixed concentration of HSA or BSA (10μM in phosphate buffer 1 mM), was added with different amounts of tested compound (0.1μM to 500μM by stock solutions in DMSO). […]
assay_readout: pKd
Scale note: pKd = -log10(concentration in M).

Below: 3 molecules and their reported pKd.
[
  {
    "molecule": "O=C(O)c1ccc(-c2ccc(/C=C3\\SC(=S)N(Cc4ccc(F)cc4)C3=O)o2)cc1O [Compound 1]",
    "pKd": 6.17
  },
  {
    "molecule": "O=C(O)c1ccc(-c2ccc(/C=C3\\SC(=S)N(Cc4ccc(Cl)c(F)c4)C3=O)o2)cc1O [Compound 9f]",
    "pKd": 5.96
  },
  {
    "molecule": "O=C(O)c1ccc(-c2ccc(/C=C3\\SC(=S)N(c4ccc(F)c(Cl)c4)C3=O)o2)cc1O [Compound 9e]",
    "pKd": 5.97
  }
]

Lab note: next molecule to report on.
Recorded pKd for O=C(O)c1ccc(-c2ccc(/C=C3\SC(=S)N(CCCc4ccccc4)C3=O)o2)cc1O [Compound 9c] , please?
5.98

###

# pKd per entry
target_or_test_system: bovine serum albumin (BSA) (Bos taurus, UniProt P02769)
experiment_summary: Albumin binding fluorimetric assay, BSA
conditions_used: fluorescence quenching, 10 μM BSA
Scale note: pKd = -log10(concentration in M).

Below: 3 compounds and their reported pKd.
[
  {
    "smi": "Cc1ccc(CCN2C(=O)/C(=C/c3ccc(-c4ccc(C(=O)O)c(O)c4)o3)SC2=S)cc1",
    "assay_readout": "pKd",
    "numeric_result": 5.81
  },
  {
    "smi": "O=C(O)c1ccc(-c2ccc(/C=C3\\SC(=S)N(Cc4ccc(Cl)cc4)C3=O)o2)cc1O",
    "assay_readout": "pKd",
    "numeric_result": 6.20
  },
  {
    "smi": "O=C(O)c1ccc(-c2ccc(/C=C3\\SC(=S)N(CCc4ccc(F)cc4)C3=O)o2)cc1O",
    "assay_readout": "pKd",
    "numeric_result": 5.97
  }
]

Lab note: next compound to report on.
Recorded pKd for `CCc1ccc(CCN2C(=O)/C(=C/c3ccc(-c4ccc(C(=O)O)c(O)c4)o3)SC2=S)cc1` , please?
6.00
